target: hAT1R (Homo sapiens, UniProt P30556); test: BRET β-arrestin2 biosensor assay, higher receptor expression (hAT1R 5 ng/well), HEK293 cells; format: cell-based; conditions: High AT1R Expression
Readout Kind: EC50 (nM)
API: value field is a number in nM; no unit string.

Molecule	Tested Target	Readout Unit	Recorded Number
CCc1nc2c(C)cc(C)nc2n1Cc1ccc(-c2cc(-c3ccccc3)ccc2-c2nn[nH]n2)cc1 [Example 4]	hAT1R (Homo sapiens, UniProt P30556)	nM	3.8
CCCCC(=O)N(Cc1ccc(-c2cc(-c3cccc(C)n3)ccc2-c2nn[nH]n2)cc1)[C@H](C(=O)O)C(C)C [Example 444]	hAT1R (Homo sapiens, UniProt P30556)	nM	147
CCCCC(=O)N(Cc1ccc(-c2cc(-c3cc(C)ccn3)ccc2-c2nn[nH]n2)cc1)[C@H](C(=O)O)C(C)C [Example 445]	hAT1R (Homo sapiens, UniProt P30556)	nM	9.8

Record CCc1nc2c(C)cc(C)nc2n1Cc1ccc(-c2cc(-c3ccc(C(=O)N(C)C)cc3)ccc2C(=O)O)cc1 [Example 185] : what is its EC50 with hAT1R (Homo sapiens, UniProt P30556)?
149

Observed EC50 on hAT1R (Homo sapiens, UniProt P30556) for CCc1nc2c(C)cc(C)nc2n1Cc1ccc(-c2cc(-c3ccccc3O)ccc2-c2nnn[nH]2)cn1 [Example 178] , please.
4.8

Param readout= EC50; system= hAT1R (Homo sapiens, UniProt P30556); entry= CCCCC1=NC2(CCCC2)C(=O)N1Cc1ccc(-c2cc(-c3cc(OC)ccn3)ccc2-c2nn[nH]n2)cc1 [Example 141] ; returns value.
10

Provide the documented EC50 with hAT1R (Homo sapiens, UniProt P30556) as the system for CCc1nc2c(C)cc(C)nc2n1Cc1ccc(-c2cc(-c3ccc(CO)cc3)ccc2-c2nnn[nH]2)cn1 [Example 180]
50.8

Query for hAT1R (Homo sapiens, UniProt P30556): what EC50 does the record show for CCc1nc2c(C)cc(C)nc2n1Cc1ccc(-c2cc(-c3ccccc3)ccc2C(=O)O)cc1 [Example 31] ?
58.2

Provide value of EC50 for this record tested with hAT1R (Homo sapiens, UniProt P30556): O=C(O)c1cccc2nc(O)n(Cc3ccc(-c4cc(-c5ccccc5)ccc4-c4nn[nH]n4)cc3)c12 [Example 317]
319

Request body: readout EC50, system hAT1R (Homo sapiens, UniProt P30556), query CCc1nc2c(C)cc(C)nc2n1Cc1ccc(-c2cc(-c3cccnc3)ccc2-c2nn[nH]n2)cc1 [Example 52] . Return the value.
30.7

Look up EC50 with hAT1R (Homo sapiens, UniProt P30556) for this molecule: CCCCC1=NC2(CCCC2)C(=O)N1Cc1ccc(-c2cc(-c3cscn3)ccc2-c2nn[nH]n2)cc1 [Example 137]
35.3

* * *

Biological target: hAT1R (Homo sapiens)
Sequence (P30556 1-359): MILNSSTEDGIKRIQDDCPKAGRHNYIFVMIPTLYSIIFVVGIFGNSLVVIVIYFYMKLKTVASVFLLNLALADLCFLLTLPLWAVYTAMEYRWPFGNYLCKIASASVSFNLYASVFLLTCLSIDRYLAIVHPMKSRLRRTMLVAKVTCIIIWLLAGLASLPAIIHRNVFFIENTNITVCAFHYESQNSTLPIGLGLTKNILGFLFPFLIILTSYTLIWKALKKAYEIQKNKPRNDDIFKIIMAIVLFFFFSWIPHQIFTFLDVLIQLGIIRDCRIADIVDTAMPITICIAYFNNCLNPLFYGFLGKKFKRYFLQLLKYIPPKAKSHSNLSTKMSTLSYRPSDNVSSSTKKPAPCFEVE
Test: cell-based
Conditions: agonist mode; read-out: BRET P63 EC50
Hi! Just check whether EC50 is below 70 nM. Below gives Condition met, equal or above gives Condition not met.

Consider the compound CCc1nc2c(C)cc(C)nc2n1Cc1ccc(-c2cc(-c3cc(C)cc(C)c3)ccc2-c2nn[nH]n2)cc1 [Example 9] . Is its EC50 strictly less than 70 nM?
Condition met

Hello, is EC50 of the following compound strictly smaller than 70 nM? CCc1nc2c(C)cc(C)nc2n1Cc1ccc(-c2cc(-c3ccc(CO)cc3)ccc2C(=O)O)cc1 [Example 183]
Condition not met

Find out if reported EC50 for CCOc1nc2cccc(C(=O)O)c2n1Cc1ccc(-c2cc(-c3ccccc3)ccc2-c2nn[nH]n2)cc1 [Example 312] is less than 70 nM
Condition met

Bench note: check whether CCc1nc2c(C)cc(C)nc2n1Cc1ccc(-c2cc(-n3cncc3C)ccc2-c2nnn[nH]2)cc1 [Example 220] shows EC50 below 70 nM
Condition met

Is the reported EC50 for CCCCC(=O)N(Cc1ccc(-c2cc(-c3ccccn3)ccc2-c2nn[nH]n2)cc1)C1(C(=O)O)CCCCC1 [Example 293] strictly below 70 nM?
Condition not met

Please check: EC50 for CCc1nc2c(C)cc(C)nc2n1Cc1ncc(-c2cc(-c3cccc(C)c3)ccc2-c2nnn[nH]2)cn1 [Example 188] , strictly under 70 nM or not?
Condition met

* * *

biological target: AGTR1 (Homo sapiens, UniProt P30556); construct: host or cells: Pathunter CHO-K1 AGTR1 β-arrestin cell line (CHO-K1); assay: DiscoveRx IP1 accumulation assay (HTRF), agonist mode, Pathunter CHO-K1 AGTR1 β-arrestin cell line; type: cell-based
The entries below are paired with their reported IP-1 Ymax (%).
Kindly format the answer as number then unit.

Find the measured IP-1 Ymax (%): item CCCCOC(=O)NS(=O)(=O)c1sc(-c2ccccc2C)cc1-c1ccc(Cn2c(CC)nc3c(C)cc(C)nc32)cc1 [Example 40] , target or system AGTR1 (Homo sapiens, UniProt P30556).
8.5%

* * *

molecular target: AGTR1 (Homo sapiens, UniProt P30556); construct: host or cells: Pathunter CHO-K1 AGTR1 β-arrestin cell line (CHO-K1); assay: DiscoveRx β-arrestin2 recruitment assay (enzyme complementation, Pathunter CHO-K1 AGTR1 β-arrestin cell line); assay type: cell-based; conditions: DiscoveRx β-arrestin2 recruitment
Simple rule here: EC50 less than 70 nM is yes, otherwise no.

# example entries with known answers
Molecule	Discrete Label
CCCCc1nc(Cl)c(C(=O)O)n1Cc1ccc(-c2cc(-n3ccc4ccccc43)ccc2-c2nn[nH]n2)cc1 [Example 417]	yes
CCCCc1ncc(C(=O)NCc2cnn(C)c2)n1Cc1ccc(-c2cc(-c3ccccc3)ccc2-c2nn[nH]n2)cc1 [Example 346]	yes
CCCCc1ncc(C(=O)NC2CCCC2)n1Cc1ccc(-c2cc(-c3ccccc3)ccc2-c2nn[nH]n2)cc1 [Example 377]	yes

Here's an entry: CCCCc1ncc(C(=O)NC2CCCCCC2)n1Cc1ccc(-c2cc(-c3ccccc3)ccc2-c2nn[nH]n2)cc1 [Example 362] . Is its EC50 below 70 nM?
no

Below 70 nM on EC50? Entry CCc1nc2c(C)cc(C)nc2n1Cc1ccc(-c2cc(-c3ccccc3)ccc2OCC(=O)O)cc1 [Example 69]
no

Does the reported EC50 of CCCCc1ncc(C(=O)NCCOC)n1Cc1ccc(-c2cc(-c3ccccc3)ccc2-c2nn[nH]n2)cc1 [Example 374] stay below 70 nM?
yes

* * *

target: hAT1R (Homo sapiens); experiment: cell-based; conditions: section of the 42nd table ending at r951, example numbering restarts after the DiscoveRx section; read-out: β-arrestin2 EC50
Readout Kind: EC50 (nM)
Answer with a number only, understood to be in nM.

Compound	EC50, nM
CCc1nc2c(C)cc(C)nc2n1Cc1ccc(-c2cc(Oc3ccccc3)ccc2-c2nnn[nH]2)cc1 [Example 204]	9.8
CCc1nc2c(C)cc(C)nc2n1Cc1ccc(-c2cc(-c3cccc(C)c3)ccc2-c2nn[nH]n2)c(F)c1 [Example 267]	8.2
CCOc1nc2cccc(C(=O)O)c2n1Cc1ccc(-c2cc(-n3ccc(C(F)(F)F)n3)ccc2-c2nn[nH]n2)cc1 [Example 338]	16.3
CCc1nc2c(C)cc(C)nc2n1Cc1ccc(-c2cc(-c3cn(CCF)nn3)ccc2-c2nnn[nH]2)cc1 [Example 239]	9
CCc1cn(-c2ccc(-c3nnn[nH]3)c(-c3ccc(Cn4c(CC)nc5c(C)cc(C)nc54)cc3)c2)nn1 [Example 231]	98.8

As a next step, examine the compound that follows.
What EC50 appears in the records for this compound with hAT1R (Homo sapiens)? CCc1nc2c(C)cc(C)nc2n1Cc1ccc(-c2cc(Oc3ccc(F)cc3F)ccc2-c2nnn[nH]2)cc1 [Example 208]
26.4

* * *

target: AGTR1 (Homo sapiens, UniProt P30556); construct: host or cells: Pathunter CHO-K1 AGTR1 β-arrestin cell line (CHO-K1); experiment: DiscoveRx β-arrestin2 recruitment assay (enzyme complementation, Pathunter CHO-K1 AGTR1 β-arrestin cell line); assay type: cell-based; settings: DiscoveRx β-arrestin2 recruitment, maximal response
Counter-ions that a name gives are not always drawn.
Readout Kind: DiscoveRx β-arrestin2 Ymax (%)
Quick reminder: number only, in %, skip the unit.

Compound	DiscoveRx β-arrestin2 Ymax (%)
CCc1nc2c(C)cc(C)nc2n1Cc1ccc(-c2cc(-c3ccc4ncccc4c3)ccc2-c2nn[nH]n2)cc1	24.8
CCc1nc2c(C)cc(C)nc2n1Cc1ccc(-c2cc(Oc3cc(F)ccn3)ccc2-c2nn[nH]n2)cc1	26.9

Can you look up DiscoveRx β-arrestin2 Ymax (%) on AGTR1 (Homo sapiens, UniProt P30556) for CCCCc1ncc(C(=O)O)n1Cc1ccc(-c2cc(-c3ccccc3)ccc2-c2nn[nH]n2)cc1 [Example 345, TFA salt] ?
44.8
